Each recorded value in this set is attributed to PubChem BioAssay AID493027.

SYSTEM UNDER TEST: Perilipin-1 (Homo sapiens) + 1-acylglycerol-3-phosphate O-acyltransferase ABHD5 (Homo sapiens) (UniProt O60240+Q8WTS1)
Sequence (O60240 whole entry, looked up): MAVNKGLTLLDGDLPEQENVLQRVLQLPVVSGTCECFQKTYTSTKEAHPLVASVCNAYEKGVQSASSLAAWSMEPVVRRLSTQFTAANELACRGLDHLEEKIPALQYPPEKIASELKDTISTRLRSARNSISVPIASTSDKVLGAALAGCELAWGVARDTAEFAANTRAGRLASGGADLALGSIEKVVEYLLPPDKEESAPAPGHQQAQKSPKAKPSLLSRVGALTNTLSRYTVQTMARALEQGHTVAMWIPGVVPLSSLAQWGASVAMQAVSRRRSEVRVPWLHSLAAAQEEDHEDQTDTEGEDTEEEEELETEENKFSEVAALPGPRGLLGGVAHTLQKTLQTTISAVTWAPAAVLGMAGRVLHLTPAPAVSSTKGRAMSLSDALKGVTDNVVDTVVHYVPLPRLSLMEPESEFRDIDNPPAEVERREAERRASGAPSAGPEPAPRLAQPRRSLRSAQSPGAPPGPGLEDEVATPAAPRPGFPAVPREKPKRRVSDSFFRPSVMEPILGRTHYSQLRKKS
Sequence (Q8WTS1 whole entry, looked up): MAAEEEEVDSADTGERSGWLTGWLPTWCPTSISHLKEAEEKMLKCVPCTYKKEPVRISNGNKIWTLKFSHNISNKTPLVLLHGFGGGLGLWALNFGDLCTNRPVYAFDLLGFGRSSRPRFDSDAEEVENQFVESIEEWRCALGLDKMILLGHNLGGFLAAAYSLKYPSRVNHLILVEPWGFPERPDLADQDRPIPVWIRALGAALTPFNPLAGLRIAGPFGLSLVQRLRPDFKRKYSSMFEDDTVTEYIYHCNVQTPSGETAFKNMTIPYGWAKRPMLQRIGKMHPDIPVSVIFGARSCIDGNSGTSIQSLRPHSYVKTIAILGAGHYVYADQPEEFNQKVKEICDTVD
ASSAY NOTES: ABHD5-PLIN1 interaction inhibitors, pilot screen, cell lysate, split luciferase complementation, luminescence, NIH validation set (AID 493027);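 note: 0% = DMSO wells with the 100% control not disclosed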
STATED CONDITIONS: split G. princeps luciferase complementation, 4 h; at 7.9 µM
Among all 2,000 compounds or so, about 45 (2%) were called active.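 Rule for the calls: active = inhibition above the screen-wide mean inhibition plus 3 SD (cut at about 44% in these data); inactive = the rest.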 This excerpt belongs to a sample that is enriched for actives.
Possible outcomes: 1 for active, -1 for inactive

[[record]]
compound = "CCOC(=O)C1CCCN(Cc2nc(Cc3cccc(F)c3)no2)C1 (stereo unspecified)"
label_value = -1

[[record]]
compound = "COc1ccccc1C(=O)Oc1ccc2c(c1)O/C(=C\\c1ccncc1)C2=O"
label_value = 1

[[record]]
compound = "CCN1/C(=C/C=C/C=C/c2sc3ccccc3[n+]2CC)Sc2ccccc21"
label_value = 1

[[record]]
compound = "CC(=O)c1c(C)c(C)c2n1CCn1c(C)ccc1-2"
label_value = -1

[[record]]
compound = "CCc1ccc(/C=C2\\Oc3cc(OC(=O)N4CCOCC4)ccc3C2=O)cc1"
label_value = -1

[[record]]
compound = "COc1ccc(/C=C2\\CCc3ccccc3C2=O)c(OC)c1OC"
label_value = -1

[[record]]
compound = "COc1ccccc1/C=C/C(=O)c1c2c(c(C)[nH]c1=O)CCCC2"
label_value = -1

[[record]]
compound = "COC(=O)c1ccc2c(c1)C(=O)/C(=C/c1ccc(O)cc1)O2"
label_value = -1

[[record]]
compound = "CN(C)CCCN1c2ccccc2Sc2ccccc21"
label_value = -1

[[record]]
compound = "CC(CN1c2ccccc2Sc2ccccc21)N(C)C (stereo unspecified)"
label_value = -1

[[record]]
compound = "COc1cccc(/C=C/C(=O)c2c(O)cc(C)oc2=O)c1O"
label_value = 1

